Provenance of the data: patent US10968178B2

Each entry below lists one item and its recorded inhibition at 0.1 µM value.
Target or test system: human IP6K2 (Homo sapiens, UniProt Q9UHH9)
Construct: human IP6K2 (1-426) gene; GST; made in house; host or cells: Sf-9 insect cells
Sequence (Q9UHH9 whole entry): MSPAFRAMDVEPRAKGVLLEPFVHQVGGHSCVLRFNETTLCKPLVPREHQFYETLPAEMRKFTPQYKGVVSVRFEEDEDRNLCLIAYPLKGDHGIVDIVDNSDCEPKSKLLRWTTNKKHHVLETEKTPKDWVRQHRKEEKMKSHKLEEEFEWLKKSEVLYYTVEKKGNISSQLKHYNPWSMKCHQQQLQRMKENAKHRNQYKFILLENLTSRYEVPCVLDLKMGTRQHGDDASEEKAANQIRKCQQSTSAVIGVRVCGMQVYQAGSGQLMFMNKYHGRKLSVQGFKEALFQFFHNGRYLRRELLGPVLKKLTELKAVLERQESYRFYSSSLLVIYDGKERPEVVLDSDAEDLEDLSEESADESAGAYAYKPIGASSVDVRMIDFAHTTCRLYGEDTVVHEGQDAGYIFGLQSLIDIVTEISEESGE
Procedure summary: IP6K enzyme inhibitory assay (ADP-Glo Kinase Assay), human IP6K2
Format: biochemical
Particulars: compound concentration 0.1 μM; read-out: ADP-Glo method inhibitory rate (%) human IP6K2
Number first, unit second.

chemical_smiles=O=C(O)c1ccc2c(n1)[C@]1(CC[C@@H](Oc3c(F)cc(Cl)cc3F)CC1)C(=O)N2 recorded_measurement=96%
chemical_smiles=O=C(O)c1ccc2c(n1)[C@]1(CC[C@H](Oc3ccc(Cl)cc3)CC1)C(=O)N2 recorded_measurement=97%
chemical_smiles=O=C(O)c1ccc2c(n1)[C@]1(CC[C@@H](Oc3ccc(Cl)cc3)CC1)C(=O)N2 recorded_measurement=92%
chemical_smiles=O=C(O)c1ccc2c(n1)[C@]1(CC[C@@H](Oc3ncc(C4CC4)cc3Cl)CC1)C(=O)N2 recorded_measurement=89%
chemical_smiles=N#Cc1cc(O[C@H]2CC[C@@]3(CC2)C(=O)Nc2ccc(C(=O)O)cc23)ccc1Cl recorded_measurement=90%
chemical_smiles=O=C(O)c1ccc2c(c1)[C@]1(CC[C@@H](Oc3ccc(Cl)c(F)c3)CC1)C(=O)N2 recorded_measurement=100%
chemical_smiles=O=C(O)c1ccc2c(c1)[C@]1(CC[C@@H](Oc3ccc(F)c(Cl)c3)CC1)C(=O)N2 recorded_measurement=98%
chemical_smiles=O=C(O)c1ccc2c(c1)[C@]1(CC[C@@H](Oc3ccc(Cl)cc3)CC1)C(=O)N2 recorded_measurement=101%
chemical_smiles=Cc1cc(Cl)cc(C)c1O[C@H]1CC[C@@]2(CC1)C(=O)Nc1ccc(C(=O)O)nc12 recorded_measurement=97%
chemical_smiles=O=C(O)c1ccc2c(n1)[C@]1(CC[C@@H](Oc3ncc(C(F)(F)F)cc3Cl)CC1)C(=O)N2 recorded_measurement=94%

Requested read-out: inhibition at 0.1 µM. Entry: `N#Cc1ccc(O[C@H]2CC[C@@]3(CC2)C(=O)Nc2ccc(C(=O)O)cc23)cc1Cl`
97%

# iterate: `Cc1c(Cl)cnc(O[C@H]2CC[C@]3(CC2)C(=O)Nc2ccc(C(=O)O)nc23)c1C#N`
97%

Then this molecule: `N#Cc1ccc(O[C@H]2CC[C@@]3(CC2)C(=O)Nc2ccc(C(=O)O)cc23)cc1F`
95%

Queued: `Cc1ccc(C#N)c(O[C@H]2CC[C@]3(CC2)C(=O)Nc2ccc(C(=O)O)cc23)n1`
99%

Try this molecule next: `Cc1cc(F)ccc1O[C@H]1CC[C@@]2(CC1)C(=O)Nc1ccc(C(=O)O)cc12`
100%

Please do the same for `O=C(O)c1ccc2c(c1)[C@]1(CC[C@@H](Oc3ccc(C(F)(F)F)cn3)CC1)C(=O)N2` as well.
97%
